# measured-target: human Yes1 enzyme (Homo sapiens, UniProt P07947)
# Construct: made in house
# Sequence (P07947 whole entry): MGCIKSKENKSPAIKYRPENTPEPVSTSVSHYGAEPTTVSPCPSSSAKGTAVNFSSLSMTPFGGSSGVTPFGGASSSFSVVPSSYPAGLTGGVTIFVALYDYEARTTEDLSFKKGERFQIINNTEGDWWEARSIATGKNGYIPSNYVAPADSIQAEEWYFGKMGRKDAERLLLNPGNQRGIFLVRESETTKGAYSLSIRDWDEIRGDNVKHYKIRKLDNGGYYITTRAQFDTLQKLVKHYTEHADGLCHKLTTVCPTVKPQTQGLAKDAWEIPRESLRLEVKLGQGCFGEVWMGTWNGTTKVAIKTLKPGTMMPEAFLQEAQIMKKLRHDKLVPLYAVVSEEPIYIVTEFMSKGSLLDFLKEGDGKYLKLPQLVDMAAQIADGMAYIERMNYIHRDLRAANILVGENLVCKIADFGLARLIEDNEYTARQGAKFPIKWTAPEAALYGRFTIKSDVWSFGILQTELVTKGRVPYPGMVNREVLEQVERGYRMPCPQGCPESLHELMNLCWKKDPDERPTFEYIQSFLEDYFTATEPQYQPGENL
# experiment-summary: Yes1 enzyme inhibitory activity (time-resolved fluorometry, biotinylated peptide phosphorylation)
# Format: biochemical
# conditions-used: biotinylated peptide phosphorylation, read-out: YES_IC50
pIC50: −log10 of the molar value.
measured-parameter: pIC50

Check out these entries, answers already filled in.
• Cc1cc(Oc2cccc(F)c2F)ccc1-n1ncc(C(=O)c2cc3cc(F)c(NS(=O)(=O)C4CC4)cc3[nH]2)c1N [Example 4-2-041] = 9.10
• Cc1cc2cc(C(=O)c3cnn(-c4cnc(Oc5ccccc5F)cc4C)c3N)[nH]c2cc1NS(=O)(=O)c1cc(F)cc(C#N)c1 [Example 5-1-497] = 8.33
• Cc1cc(Oc2ccccc2F)ccc1-n1ncc(C(=O)c2cc3cc(OCC(F)F)c(NC4CN(S(C)(=O)=O)C4)cc3[nH]2)c1N [Example 4-23-018] = 8.85

[P] Cc1cc(Oc2ccccc2F)cc(F)c1-n1ncc(C(=O)c2cc3cc(OC(F)F)c(NC4COC4)cc3[nH]2)c1N [Example 4-23-011]
[Q] Cc1cc(Oc2ccccc2F)ccc1-n1ncc(C(=O)c2cc3cc(F)c(NS(=O)(=O)N4CCOCC4)cc3[nH]2)c1N [Example 4-5-002]
[R] Cc1cc(Oc2ccccc2F)ncc1-n1ncc(C(=O)c2cc3cc(OCC(F)F)c(N4CCN(S(C)(=O)=O)CC4)cc3[nH]2)c1N [Example 4-23-007]
input: Ascending by pIC50, please. Enter labels, ranked according to the request.
output: P, R, Q
(P: 8.12, R: 8.89, Q: 9.12)
